Measured values drawn from ChEMBL document CHEMBL1201862 for this set.

System: NCI/ADR-RES
assay procedure: NCI tumour cell line growth inhibition, 48 h
Structures can show the parent of a compound that is named as a salt. The source made the active and inactive calls. Cut-off read from the data, not from the text of the source: active = GI50 up to about 1.1 µM and inactive = higher.
Could you please pick one outcome from this set? label 1 = active, label 0 = inactive

These solved cases illustrate the format of a correct answer.
compound: COc1ccc(N2C(=O)C3c4[nH]c5ccc(C)cc5c4C4CCC(C(C)(C)C)CC4C3C2=O)cc1 (centres undefined)
class name: label 0

compound: COc1cc(C2CC(C)(O)Oc3cc4c(cc32)OCO4)cc(OC)c1OC (centres undefined)
class name: label 1

compound: COC12c3ccccc3-c3ccccc3C1[C@H]1C(=O)OC(=O)[C@H]12 (some centres undefined)
class name: label 0

compound: CC1=C2C(=O)OCC23C=COC3(C)O1 (centres undefined)
class name: label 0

compound: O=[N+]([O-])c1cc2c(cc1/C=N/n1c(CO)nc3ccccc31)OCO2
class name: label 0

compound: CC(C)(C)N(Cc1ccoc1)C(=O)/C=C\[S+]([O-])c1ccccc1 (centres undefined)
class name: label 0

compound: CCCCc1oc2ccccc2c1C(=O)c1cc(I)c(OCCN(CC)CC)c(I)c1 [AMIODARONE HYDROCHLORIDE]
class name: label 0

compound: COC(C)(C)[C@@H]1CCCN1C1=C(C)C(=O)OC1
class name: label 0

Exam item: Answer briefly: the call reported for `C[C@H](CCC1=NCCN1)[C@H]1CC[C@H]2[C@@H]3CC[C@@H]4C[C@H](O)CC[C@]4(C)[C@H]3C[C@H](O)[C@]12C` in this assay.
Marked response: label 0

----------
System: K562
assay procedure: NCI tumour cell line growth inhibition, 48 h
Calls of active or inactive are those of the source. Cut-off read from the data, not from the text of the source: active = GI50 up to about 1.1 µM and inactive = higher.
Could you please pick one outcome from this set? active, inactive

molecule: CC1=C2C(=O)OCC23C=COC3(C)O1 (configuration not stated)
class name: inactive

molecule: C[n+]1cc2cc(O)c(O)cc2c2ccc3cc(O)c(O)cc3c21.c1ccncc1
class name: inactive

molecule: Nc1nnc(O)c2c1c(I)cn2C1OC(CO)C(O)C1O (configuration not stated)
class name: active

molecule: CN(C)c1ccc(C2C(Cl)C(=O)N2NC(=O)c2c(Cl)c(Cl)c(Cl)c(Cl)c2-c2nc3ccccc3[nH]2)cc1 (configuration not stated)
class name: inactive

molecule: O=C(Nc1ccc2oc(=O)c(C(=O)O)cc2c1)Oc1ccccc1
class name: inactive

Exam item: Answer briefly: the call reported for `CN(C)c1ncnc2c1Cc1ccccc1C(=O)N2C` in this assay.
Marked response: inactive

Exam item: Answer briefly: the call reported for `C=CCOC(=O)Cn1cnc2c(N)ncnc21` in this assay.
Marked response: inactive

Exam item: Answer briefly: the call reported for CC(=O)N(CCc1ccccc1)C(C)(C#N)c1ccccc1 (configuration not stated) in this assay.
Marked response: inactive

Exam item: Answer briefly: the call reported for `Cc1cc(C)c(-n2[nH]c(=O)n(C)c2=O)c(C)c1` in this assay.
Marked response: inactive

Exam item: Answer briefly: the call reported for CC(=O)Oc1cc(-c2oc3cc(OC(C)=O)c(C4OC(CO)C(O)C(O)C4O)c(OC(C)=O)c3c(=O)c2O)c(OC(C)=O)cc1O (configuration not stated) in this assay.
Marked response: inactive

Exam item: Answer briefly: the call reported for `CCc1cccc(C)c1NC(=S)NC(=O)c1ccccc1C(=O)NC(=S)Nc1c(C)cccc1CC` in this assay.
Marked response: inactive

----------
System: CAKI-1
assay procedure: NCI tumour cell line growth inhibition, 48 h
Active and inactive are the calls of the source. Rule as the data show it: active = GI50 up to about 1.1 µM and inactive = higher.
Could you please pick one outcome from this set? yes (active), no (inactive)

These solved cases illustrate the format of a correct answer.
compound: C/C(=N\NC(=S)N1CCN(c2ccccn2)CC1)c1nccs1
subject of test: CAKI-1
class name: no

compound: COc1ccccc1NC(=O)C(=O)C(C#N)CC(C)(C)C=O (centres undefined)
subject of test: CAKI-1
class name: no

compound: O=C(CC1C=CCS1(=O)=O)NCc1ccccc1 (centres undefined)
subject of test: CAKI-1
class name: no

compound: CC(=O)N(CCc1ccccc1)C(C)(C#N)c1ccccc1 (centres undefined)
subject of test: CAKI-1
class name: no

compound: CCOC(=O)C1NCCc2c1[nH]c1ccccc21 (centres undefined)
subject of test: CAKI-1
class name: no

Exam item: Answer briefly: the call reported for `CC(=O)c1cccc(Nc2nc3ccccc3c3occc23)c1` in this assay.
Marked response: no

Exam item: Answer briefly: the call reported for `Cc1cccc2cc3cccc(C(=O)NCCN(C)C)c3nc12` in this assay.
Marked response: yes

Exam item: Answer briefly: the call reported for `COC(=O)NN1C(=O)C(=P(c2ccccc2)(c2ccccc2)c2ccccc2)C(C(=O)OC)=C1C` in this assay.
Marked response: no

Exam item: Answer briefly: the call reported for `Fc1ccc(OCc2nc3cc(C(F)(F)F)ccc3nc2-c2ccccc2)cc1` in this assay.
Marked response: no

Exam item: Answer briefly: the call reported for COCC1OCCN1C (centres undefined) in this assay.
Marked response: no

----------
Tested on: UACC-62
assay procedure: NCI tumour cell line growth inhibition, 48 h
The source made the active and inactive calls. Cut-off read from the data, not from the text of the source: active = GI50 up to about 1.1 µM and inactive = higher.
Below, each entry is listed alongside its reported GI50.

molecule: O=c1c2ccccc2nc(N/N=C/c2ccc([N+](=O)[O-])cc2)n1-c1ccccc1
test value: 27 µM (inactive)

molecule: CC(=O)O[C@@H]1[C@H](OC2CCCCC2(c2ccccc2)c2ccccc2)O[N+]([O-])=CC12CCCCC2 (stereo not given in full)
test value: 17.7 µM (inactive)

molecule: O=C(Nc1ccc2oc(=O)c(C(=O)O)cc2c1)Oc1ccccc1
test value: > 100 µM (inactive)

molecule: O=c1c2cc([N+](=O)[O-])ccc2[nH]n1Cc1ccccn1
test value: > 100 µM (inactive)

molecule: CC1(C)CC(=O)C(CC2C(=O)c3ccccc3C2=O)C(=O)C1C(=O)C(=O)Nc1cccc2ccc(O)cc12 (stereo not given)
test value: > 100 µM (inactive)

Exam item: Output measured GI50 for this item: `O=[N+]([O-])c1ccc2occ3c2c1CCC3`
Marked response: > 100 µM (inactive)

Exam item: Output measured GI50 for this item: `CC(=O)OCCOCn1c2ccccc2c2c3c(c4c5ccccc5n(COCCOC(C)=O)c4c21)C(=O)N(Cc1ccccc1)C3=O`
Marked response: > 100 µM (inactive)

Exam item: Output measured GI50 for this item: `O=CC1=CCCN(CCc2c[nH]c3ccccc23)C1`
Marked response: 58.3 µM (inactive)

Exam item: Output measured GI50 for this item: COC1C=CC(C(=O)[N+]2=Cc3[nH]c4ccccc4c3CC2)O1 (stereo not given)
Marked response: > 100 µM (inactive)

Exam item: Output measured GI50 for this item: `O=c1c2cc(-c3ccccc3)cnc2sn1-c1ccc(Br)cc1`
Marked response: > 100 µM (inactive)

Exam item: Output measured GI50 for this item: `CCOc1ccc(/N=N/c2c(-c3ccccc3)nn(C(=O)CC(=O)Nc3ccccc3Cl)c2-c2ccccc2)cc1`
Marked response: 77.1 µM (inactive)

----------
Below, each entry is listed alongside its reported GI50.
Test system: DMS-114
assay procedure: NCI tumour cell line growth inhibition, 48 h
Calls of active or inactive are those of the source. Rule as the data show it: active = GI50 up to about 1.1 µM and inactive = higher.

Please review the entries below; each comes with its answer.
compound: O=C1C=Cc2c(-c3ccccc3)oc3cccc1c23
subject of test: DMS-114
GI50: 17.8 µM (inactive)

compound: CC(C)(C)CC(C)(C)c1cc2c(O)c(c1)Cc1cc(C(C)(C)CC(C)(C)C)cc(c1O)Cc1cc(C(C)(C)CC(C)(C)C)cc(c1O)Cc1cc(C(C)(C)CC(C)(C)C)cc(c1O)C2
subject of test: DMS-114
GI50: > 100 µM (inactive)

compound: CCCn1c(SCC)c2ccccc2c1-c1nc(F)nc(F)n1
subject of test: DMS-114
GI50: > 100 µM (inactive)

compound: C#CCN(N=O)C(=O)NCCCCC(NC(C)=O)C(=O)NCc1ccccc1 (centres undefined)
subject of test: DMS-114
GI50: > 100 µM (inactive)

compound: C=C1CC[C@@H]2C(C)(C)C(O)CCC2(C)C1COc1ccc2ccc(=O)oc2c1 (some centres undefined)
subject of test: DMS-114
GI50: 15 µM (inactive)

Exam item: Output measured GI50 for this item: `CCOC(=O)/C(C#N)=C(O)/C(=C/c1ccccc1Cl)NC(=O)c1ccccc1`
Marked response: > 100 µM (inactive)

Exam item: Output measured GI50 for this item: `COC(=O)c1cccc2c3ccccc3c3ccccc3c12`
Marked response: 29.4 µM (inactive)

----------
Test system: PC-3
assay procedure: NCI tumour cell line growth inhibition, 48 h
The source made the active and inactive calls. Cut-off read from the data, not from the text of the source: active = GI50 up to about 1.1 µM and inactive = higher.
Could you please pick one outcome from this set? active, inactive

molecule: C[n+]1cc2cc(O)c(O)cc2c2ccc3cc(O)c(O)cc3c21.c1ccncc1
class name: inactive

Exam item: Answer briefly: the call reported for `CC(=O)c1cccc(Nc2nc3ccccc3c3occc23)c1` in this assay.
Marked response: inactive

Exam item: Answer briefly: the call reported for C=CC(O)C#Cc1cnc(OC)nc1OC (configuration not stated) in this assay.
Marked response: inactive

Exam item: Answer briefly: the call reported for `Clc1ccc(-c2nnc3sc4nc5ccccc5c-4nn23)c(Cl)c1` in this assay.
Marked response: inactive

Exam item: Answer briefly: the call reported for CCOc1ccc(C2c3[nH]c4ccccc4c3CCN2C(=O)c2cccs2)cc1 (configuration not stated) in this assay.
Marked response: inactive

Exam item: Answer briefly: the call reported for `C1CSCCCSCCSCCCSC1` in this assay.
Marked response: inactive

Exam item: Answer briefly: the call reported for `O=C1C(O)=C(Cc2ccccc2)C(=O)c2ccccc21` in this assay.
Marked response: inactive

Exam item: Answer briefly: the call reported for `Cc1nc2ccc(F)cc2c2c1CCS2` in this assay.
Marked response: inactive

Exam item: Answer briefly: the call reported for COC12c3ccccc3-c3ccccc3C1[C@H]1C(=O)OC(=O)[C@H]12 (some centres not stated) in this assay.
Marked response: inactive

Exam item: Answer briefly: the call reported for NC(=S)NNCC(=O)CC(O)(C(F)(F)F)C(F)(F)Cl (configuration not stated) in this assay.
Marked response: inactive
